- ASSAYED SYSTEM: Tyrosine-protein kinase transforming protein Src [144-247,E177Q,S178L,E179A,T180R,T181V,C186A,K201L] (Rous sarcoma virus subgroup B (strain Schmidt-Ruppin), UniProt P63185, C186A/E177Q/E179A/K201L/S178L/T180R/T181V)
- Construct: 144-247
- Sequence (P63185 144-247 E176Q/S177L/E178A/T179R/T180V/C185A/K200L): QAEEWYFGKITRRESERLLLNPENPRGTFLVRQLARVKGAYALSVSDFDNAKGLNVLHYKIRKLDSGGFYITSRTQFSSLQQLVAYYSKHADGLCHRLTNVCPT
- TEST DETAILS: Fluorescence Polarization Assay
- TEST CONTEXT: pH 7.35
OBSERVABLE: Kd
The number alone won't do; follow it with the unit.

COMPOUND: N[C@@H](Cc1ccc(OS(=O)(=O)O)cc1)C(=O)O [Sulfotyrosine (sTyr)]
Kd: 10.4 nM

Pending compound:
Task item: Recorded Kd of N[C@@H](Cc1ccc(OP(=O)(O)O)cc1)C(=O)O , please.
Reply: 7.7 nM

Origin of values: BindingDB's records for doi:10.1021/acschembio.6b00555
